Assay: yeast display, Sf9 membrane polyspecificity reagent, FACS + sequencing; frameworks hold sequencing errors
attribute_measured: polyreactivity (PSR sort gate)

# annotated cases, reported polyreactivity (PSR sort gate) shown
| sequence | polyreactivity (PSR sort gate) |
| --- | --- |
| QVQLLESCGGLDQAGGSLRLSCAASGSTFGTNAMGWYRKAPGKERELVAAITSSGGSTNYADSVKWRFTISLDNANNSVYFQMNCLKPEDTAVYYCNDVSYSTTYGGDSWGQGTQVTVSS | low polyreactivity |
| QVQLQESGGGLVQACGSLRLSCAASGNISPQLYMGWYRQAPGKEREFVADIAEGSTTYYAESVKGRFTISRDDAKNTVYLHMISLKSEDTAVYYCAARYENAESFYYWGQGSQVTVSS | high polyreactivity |
| QVQRVESGGGLVQAGGSLRLSCAASGRIFGLNAMGWYRQAPGKERELVAAIDRSGASTYYADSVKGRFTISRDNAKNTVYLQMNSLKPEDSAVYYCAARIRTSDRRYYLGQGTQVTVSS | high polyreactivity |
| QVQLVESGGGLVQAGGSLRLSCAASGTIFRGNAMGWYRQAPGTERELVAAINKSGGSTYYADSVKGRFTISRDNAKNTVYLQMNSLKPEDTAVYYCAAVYKRLQPYGYWGQGTQVTVSS | high polyreactivity |
| QVQLVESGGGLDQAGGSLRLSWAASGITFGWYAKGWYRLAPGKERELVASISSSGSTNYADSVKGRLTISRDNAKNTVYLQMNSQKTEDTAVYYCNKDYLLRHFYIYVIEGDYWGQGTKVTVSS | low polyreactivity |
| QVQLVESGGGLVQAGGSLRLSCAASVITLFGYTMGWYRQAPGKERELVAAIRRRGVSTYYADSVKGRFTISRDNAKNTVYLQMNSLKPEDTAVYYCAKSLKPYTDYDYWGQGTQVTVSS | high polyreactivity |
| QVQLVESGGGLVQAGGSLRLSCAASGIIFKIYAMGWYRQAPGKARELVAAISWRGGSTYYADSVKGRFTISRDNAKNTVYLQMNSLKPEDTAVYYCAAARGYRTGYGYWGQGTQVTVSS | high polyreactivity |
| QVQLVESGGGLVQAGGSLRLTCAASGRIFALYAMGWYRQAPGKERELVAAITSGSTYYADSVKGRFTISRDNAKNTVYLQMNSLKPEDTAVYYCAADANYYPTEYYPFDYWGQGTQVTVSS | low polyreactivity |
| QVQLVESGGGLVQAGGSLRLSCAASGSIFGYYTKVWYRQARGKEREFVAAINTSGGSTYADSVKGRCTISRDNAKNTVYLQMNSLKPEDTAVYYCAADGYYEYTWGEYDSWGQGTQVTVSS | low polyreactivity |
| QVQLVESGGGLVQAGGSLRLSCAASGSIFWYNTMGWYRQAPGKERELVAAISYRGGRTYYADSVKGRFTISRDNAKNTVYLQMNSLKPEDTAVYYCNAPRYLGGGQDALGDYWGQGTQVTVSS | high polyreactivity |

Here is another sequence to look at.
# input What does the data say about its polyreactivity (PSR sort gate)? Entry: QVQLVESGGGLVQAGGSLRLSCAASGIIFWSYTMGWYSQAPGKERELVAVITSDGSTNYADSVKGRITISRDNAKNSVYLQMKSLKPEDTAVYDCAADPWLGTGRYDYWGQGTQVTVSS
# output low polyreactivity
